testTarget: CLC-0 E166C/K519E mutant (E127/K519E) (Torpedo marmorata, UniProt P21564, C212S/E166C/K519E)
Format: cell-based
testSettings: read-out: Apparent affinity (K1/2); −100 mV
pIC50: −log10 of the molar value.
endpointLabel: pIC50

>>> endpointvalue("O=C(O)COc1ccc(Cl)cc1 [CPA, p-chlorophenoxy acetate]")
3.56

====

testTarget: CLC-0 E166C mutant (E127/K519) (Torpedo marmorata, UniProt P21564, C212S/E166C)
Assay type: cell-based
testSettings: read-out: Apparent affinity (K1/2); −60 mV
endpointLabel: IC50 (µM)

>>> endpointvalue("O=C(O)COc1ccc(Cl)cc1 [CPA, p-chlorophenoxy acetate]")
349
>>> endpointvalue("CCCCCCCC(=O)O [octanoate]")
43.1

====

testTarget: CLC-0 E166C/K519E mutant (E127/K519E) (Torpedo marmorata, UniProt P21564, C212S/E166C/K519E)
Sequence (P21564 1-805 E166C/C212S/K519E): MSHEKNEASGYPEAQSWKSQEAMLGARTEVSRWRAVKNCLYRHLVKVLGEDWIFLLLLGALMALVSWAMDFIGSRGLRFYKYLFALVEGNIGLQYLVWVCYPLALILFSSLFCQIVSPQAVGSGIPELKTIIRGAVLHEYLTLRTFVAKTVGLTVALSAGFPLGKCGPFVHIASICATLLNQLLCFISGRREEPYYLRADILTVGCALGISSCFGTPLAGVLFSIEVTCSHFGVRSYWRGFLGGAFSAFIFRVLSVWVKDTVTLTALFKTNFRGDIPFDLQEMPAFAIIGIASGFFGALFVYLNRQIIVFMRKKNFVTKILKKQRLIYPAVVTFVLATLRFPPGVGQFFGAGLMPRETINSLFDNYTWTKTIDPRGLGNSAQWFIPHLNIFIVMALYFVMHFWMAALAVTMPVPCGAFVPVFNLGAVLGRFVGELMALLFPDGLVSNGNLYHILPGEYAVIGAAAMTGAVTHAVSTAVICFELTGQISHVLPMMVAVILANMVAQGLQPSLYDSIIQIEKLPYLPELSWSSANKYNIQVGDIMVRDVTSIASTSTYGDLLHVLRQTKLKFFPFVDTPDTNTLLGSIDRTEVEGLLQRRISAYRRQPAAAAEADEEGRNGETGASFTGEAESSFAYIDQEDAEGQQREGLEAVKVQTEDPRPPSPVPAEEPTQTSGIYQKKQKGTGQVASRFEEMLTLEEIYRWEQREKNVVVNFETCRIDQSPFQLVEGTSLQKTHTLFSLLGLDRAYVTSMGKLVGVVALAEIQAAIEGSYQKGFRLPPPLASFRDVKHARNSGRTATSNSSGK
Format: cell-based
testSettings: read-out: Apparent affinity (K1/2); −160 mV
pIC50: −log10 of the molar value.
endpointLabel: pIC50

>>> endpointvalue("O=C(O)COc1ccc(Cl)cc1 [CPA, p-chlorophenoxy acetate]")
3.94

====

Listing: pIC50 of selected compounds
testTarget: CLC-0 E166S mutant (Torpedo marmorata, UniProt P21564, C212S/E166S)
Sequence (P21564 1-805 E166S/C212S): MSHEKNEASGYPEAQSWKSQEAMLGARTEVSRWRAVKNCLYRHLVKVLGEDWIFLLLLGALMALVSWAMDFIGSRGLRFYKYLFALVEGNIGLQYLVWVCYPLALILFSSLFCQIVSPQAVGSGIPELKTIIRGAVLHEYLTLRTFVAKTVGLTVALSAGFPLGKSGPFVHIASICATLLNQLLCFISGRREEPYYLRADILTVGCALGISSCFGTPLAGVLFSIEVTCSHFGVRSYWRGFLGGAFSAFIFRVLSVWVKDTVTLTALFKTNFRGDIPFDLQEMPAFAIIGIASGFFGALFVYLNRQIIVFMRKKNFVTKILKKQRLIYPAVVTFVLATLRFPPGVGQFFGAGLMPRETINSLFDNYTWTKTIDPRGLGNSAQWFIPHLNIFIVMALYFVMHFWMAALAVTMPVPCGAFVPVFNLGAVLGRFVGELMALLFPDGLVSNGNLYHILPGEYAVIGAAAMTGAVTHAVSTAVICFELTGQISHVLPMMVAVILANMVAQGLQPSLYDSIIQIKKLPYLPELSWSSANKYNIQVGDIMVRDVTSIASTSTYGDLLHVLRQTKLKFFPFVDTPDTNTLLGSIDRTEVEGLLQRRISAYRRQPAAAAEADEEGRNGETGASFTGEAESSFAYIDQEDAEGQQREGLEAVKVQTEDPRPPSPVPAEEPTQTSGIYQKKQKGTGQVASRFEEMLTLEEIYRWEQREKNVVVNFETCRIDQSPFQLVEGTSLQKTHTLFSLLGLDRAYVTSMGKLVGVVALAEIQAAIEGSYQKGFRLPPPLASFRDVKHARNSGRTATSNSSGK
Assay type: cell-based
testSettings: read-out: Apparent affinity (K1/2); −60 mV
pIC50: −log10 of the molar value.
endpointLabel: pIC50

>>> endpointvalue("CCCCCCCC(=O)O [octanoate]")
3.39
>>> endpointvalue("O=C(O)COc1ccc(Cl)cc1 [CPA, p-chlorophenoxy acetate]")
3.47
